List of protein stability index values.
B1: TCEB3B (parent)
chain: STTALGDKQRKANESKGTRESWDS

Variants of: B1
procedure_text: protein stability index of a GFP-peptide fusion (GPS, HEK-293T) (PSI 1-6); higher = more stable;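 also: lentivirally expressed fusions sorted by FACS into six bins by GFP to DsRed ratio, PSI derived from sequencing read proportions per bin multiplied by bin number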
condition: c terminus: a fixed tail appended
observable: protein stability index

INSERT INTO measurements (item_sequence, observable, result) VALUES
  ('STTALGDKQRKAAESKGTRESWDS [N13A]', 'protein stability index', 3.91),
  ('STTALGDKQRKANLSKGTRESWDS [E14L]', 'protein stability index', 3.9),
  ('STTALGDKQRKANESKGQRESWDS [T18Q]', 'protein stability index', 4.03),
  ('STTALGDKQRKCNESKGTRESWDS [A12C]', 'protein stability index', 3.99);
